Each recorded value in this set is attributed to PubChem BioAssay (NCATS).

- Assay Method Text: qHTS profiling of the MIPE4 collection as inhibitors of Plasmodium falciparum (DD2) proliferation (Rep 2) (AID 743346)
- Condition Info: P. falciparum Dd2 in erythrocytes, SYBR Green DNA, 72 h; at 28.5 µM unless noted
Measured Endpoint: parasite growth, % of control (lower = inhibition)

Examples with answers:
# Compound, Measured
rows = [
    ("COc1cc(C=CC(=O)CC(=O)C=Cc2ccc(O)c(OC)c2)ccc1O", "16.5% [at 57.5 µM]"),
    ("C[C@](Cc1c[nH]c2ccccc12)(NC(=O)OC1C2CC3CC(C2)CC1C3)C(=O)NC[C@H](NC(=O)CCC(=O)O)c1ccccc1 (some centres undefined)", "30.8%"),
    ("CCN1CCN(C(=O)N[C@H](C(=O)N[C@@H]2C(=O)N3C(C(=O)O)=C(CSc4nnnn4C)CS[C@@H]23)c2ccc(O)cc2)C(=O)C1=O", "57.9% [at 9.64 µM]"),
    ("C[C@H](CCC(=O)O)[C@H]1CCC2C3C[C@H](O)[C@@H]4C[C@H](O)CC[C@]4(C)C3CC[C@@]21C (some centres undefined)", "88.7%"),
    ("C#Cc1cccc(Nc2ncnc3cc(OCCOC)c(OCCO)cc23)c1", "18.2%"),
]

Q: For "FC(F)(F)c1ccc(Nc2nc3ccc(Oc4ccnc(-c5ncc(C(F)(F)F)[nH]5)c4)cc3[nH]2)cc1" , what is its reported parasite growth, % of control (lower = inhibition)?
Result: 15.3%

Q: Give its parasite growth, % of control (lower = inhibition) value. Item: "COC(=O)[C@@H]1CC2=CC(=O)CC[C@]2(C)[C@@]23O[C@@H]2C[C@@]2(C)[C@H](CC[C@@]24CCC(=O)O4)[C@@H]13"
Result: 61.4%

Q: Look at this compound and give its reported parasite growth, % of control (lower = inhibition). "CC(=O)ON=C1C(c2c(O)[nH]c3cc(Br)ccc23)=Nc2ccccc21"
Result: 6.05%

Q: // parasite growth, % of control (lower = inhibition) lookup, key: "CCNC(=O)Nc1ccc(-c2nc3c(c(N4CCOC[C@H]4C)n2)CCN(C2COC2)C3)cc1"
Result: 49%

Q: Param item = "Cc1cncc2cccc(S(=O)(=O)N3CCCN(C(=O)CN)C[C@@H]3C)c12" ; retrieve measured parasite growth, % of control (lower = inhibition).
Result: 51%

Q: Which parasite growth, % of control (lower = inhibition) is reported for this compound? "C[C@H](NCc1ccc2c(c1)nc(NC(=O)c1ccc(-c3cn[nH]c3)s1)n2CCc1ccccc1)C(C)(C)C"
Result: 13.1%

Q: For the compound "COc1ccc(S(=O)(=O)Nc2cccnc2Nc2ccc(O)cc2)cc1" , what parasite growth, % of control (lower = inhibition) is on record?
Result: 85.5%

Q: Need parasite growth, % of control (lower = inhibition) of "CCN(C(=O)c1c(O)c2c(Cl)cccc2n(C)c1=O)c1ccccc1" , thanks.
Result: 78.3%

Q: parasite growth, % of control (lower = inhibition) for C[C@H]1O[C@H](O[C@H]2[C@H](O)[C@@H](O)[C@@H](O[C@H]3[C@H](O)[C@@H](O)C(O)O[C@H]3CO)O[C@H]2CO)[C@H](O)[C@@H](O)[C@H]1N[C@H]1C=C(CO)[C@@H](O)[C@H](O)[C@@H]1O (some centres undefined) ?
Result: 88.4%
